- Assay Procedure: Cmax in CD1 mouse at 30 mg/kg, po
- Assay type: ADME, organism-based
- Parameters: dose 30 mg/kg, route oral
- Test Parameters: in vivo
Experimental Endpoint: Cmax
For clarity, give the value followed by its unit.

Consider the reported Cmax for these molecules:
Chemical String: C=CC(=O)N1CCN(c2nc(OC[C@@H]3CCCN3C)nc3c2CCN(c2cccc4cccc(C)c24)C3)C[C@@H]1CC#N
Value Observed: 1660 ng/mL
--
Chemical String: C=C(F)C(=O)N1CCN(c2nc(OC[C@@H]3CCCN3C)nc3c2CCN(c2cccc4cccc(Cl)c24)C3)C[C@@H]1CC#N
Value Observed: 2410 ng/mL

Now examine the next entry.
Query :: For C=CC(=O)N1CCN(c2nc(OC[C@@H]3CCCN3C)nc3c2CCN(c2cccc4cccc(Cl)c24)C3)C[C@@H]1CC#N , what is its reported Cmax?
Result :: 2460 ng/mL

* * *

- Assay Procedure: Solubility in FaSSIF at pH 6.5
- Assay type: physicochemical
Experimental Endpoint: solubility (µg/mL)
Answers are plain numbers, in µg/mL.

Chemical String: C=C(F)C(=O)N1CCN(c2nc(OC[C@@H]3CCCN3C)nc3c2CCN(c2cccc4cccc(Cl)c24)C3)C[C@@H]1CC#N
solubility (µg/mL): 568

Query :: Quick one: solubility for C=CC(=O)N1CCN(c2nc(OC[C@@H]3CCCN3C)nc3c2CCN(c2cccc4ccccc24)C3)C[C@@H]1CC#N ?
Result :: 800

* * *

- Assay Procedure: Half life in beagle dog at 3 mg/kg, iv
- Assay type: ADME, organism-based, Canis lupus familiaris
- Test Parameters: in vivo
Would you mind telling me the reported half-life of each entry?
Numbers only, in min.

Chemical String: C=C(F)C(=O)N1CCN(c2nc(OC[C@@H]3CCCN3C)nc3c2CCN(c2cccc4cccc(Cl)c24)C3)C[C@@H]1CC#N
Readout Unit: min
half-life: 454
--
Chemical String: C=CC(=O)N1CCN(c2nc(OC[C@@H]3CCCN3C)nc3c2CCN(c2cccc4cccc(Cl)c24)C3)C[C@@H]1CC#N
Readout Unit: min
half-life: 49.6

Please examine the following record next.
Query :: // lookup half-life for C=CC(=O)N1CCN(c2nc(OC[C@@H]3CCCN3C)nc3c2CCN(c2cccc4cccc(C)c24)C3)C[C@@H]1CC#N
Result :: 58

* * *

Would you kindly list bioavailability for each of these compounds?
- Assay Procedure: Oral bioavailability in CD1 mouse at 30 mg/kg
- Type: ADME, organism-based
- Test Parameters: in vivo
Give bare numbers, in %.

Chemical String: C=CC(=O)N1CCN(c2nc(OC[C@@H]3CCCN3C)nc3c2CCN(c2cccc4cccc(Cl)c24)C3)C[C@@H]1CC#N
Readout Unit: %
Value Observed: 16.9

// below: bioavailability requested for another compound
Query :: # bioavailability lookup, item C=CC(=O)N1CCN(c2nc(OC[C@@H]3CCCN3C)nc3c2CCN(c2cccc4cccc(C)c24)C3)C[C@@H]1CC#N
Result :: 31.1

* * *

- Assay Procedure: in vivo
- Test Parameters: rat, po, 30 mg/kg
Experimental Endpoint: bioavailability (%)
Answers are plain numbers, in %.

Query :: Report bioavailability for C=C(F)C(=O)N1CCN(c2nc(OC[C@@H]3CCCN3C)nc3c2CCN(c2cccc4cccc(Cl)c24)C3)C[C@@H]1CC#N please.
Result :: 29.7

* * *

The compounds below have reported IC50 for GTPase KRas (Homo sapiens, UniProt P01116, G12C).
One number for each entry, in µM.

Solved entries:
Compound: C=CC(=O)N1CCN(c2nc(OC[C@@H]3CCCN3C)nc3c2CCN(c2cccc4cccc(C)c24)C3)C[C@@H]1CC#N
Assay System: GTPase KRas (Homo sapiens, UniProt P01116, G12C)
Sequence (P01116 whole entry G12C): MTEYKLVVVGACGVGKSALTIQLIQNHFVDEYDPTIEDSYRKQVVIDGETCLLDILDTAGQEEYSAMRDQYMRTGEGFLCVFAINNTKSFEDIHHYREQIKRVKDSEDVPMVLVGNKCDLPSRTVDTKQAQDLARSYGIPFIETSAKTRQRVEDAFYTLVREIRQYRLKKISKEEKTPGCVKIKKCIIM
Experimental Endpoint: IC50
Readout Unit: µM
Value Observed: 0.001
--
Compound: C=CC(=O)N1CCN(c2nc(OC[C@@H]3CCCN3C)nc3c2CCN(c2c(C(C)C)ccc4[nH]ncc24)C3)CC1
Assay System: GTPase KRas (Homo sapiens, UniProt P01116, G12C)
Experimental Endpoint: IC50
Readout Unit: µM
Value Observed: 1.18
--
Compound: C=CC(=O)N1CCN(c2nc(OC[C@@H]3CCCN3C)nc3c2CCN(c2c(C)ccc4[nH]ncc24)C3)CC1
Assay System: GTPase KRas (Homo sapiens, UniProt P01116, G12C)
Experimental Endpoint: IC50
Readout Unit: µM
Value Observed: 1.5
--
Compound: C=CC(=O)N1CCN(c2nc(OC[C@@H]3CCCN3C)nc3c2CCN(c2cccc4ccccc24)C3)C[C@@H]1CC#N
Assay System: GTPase KRas (Homo sapiens, UniProt P01116, G12C)
Experimental Endpoint: IC50
Readout Unit: µM
Value Observed: 0.01
--
Compound: C=CC(=O)N1CCN(c2nc(OC[C@@H]3CCCN3C)nc3c2CCN(c2cccc4cccc(C#N)c24)C3)C[C@@H]1CC#N
Assay System: GTPase KRas (Homo sapiens, UniProt P01116, G12C)
Experimental Endpoint: IC50
Readout Unit: µM
Value Observed: 0.064
--
Compound: C=CC(=O)N1CCN(c2nc(OC[C@@H]3CCCN3C)nc3c2CCN(c2cccc4ccccc24)C3)C(CO)C1 (some centres undefined)
Assay System: GTPase KRas (Homo sapiens, UniProt P01116, G12C)
Experimental Endpoint: IC50
Readout Unit: µM
Value Observed: 4.53
--
Compound: C=CC(=O)N1CCN(c2nc(OC[C@@H]3CCCN3C)nc3c2CCN(c2cccc4cccc(CC)c24)C3)C[C@@H]1CC#N
Assay System: GTPase KRas (Homo sapiens, UniProt P01116, G12C)
Experimental Endpoint: IC50
Readout Unit: µM
Value Observed: 0.006
--
Compound: C=CC(=O)N1CCN(c2nc(OC[C@@H]3CCCN3C)nc3c2CCN(c2cccc4ccccc24)C3)C(CCO)C1 (some centres undefined)
Assay System: GTPase KRas (Homo sapiens, UniProt P01116, G12C)
Experimental Endpoint: IC50
Readout Unit: µM
Value Observed: 4.84
--
Compound: C=CC(=O)N1CCN(c2nc(OC[C@@H]3CCCN3C)nc3c2CCN(c2cccc4ccccc24)C3)CC1
Assay System: GTPase KRas (Homo sapiens, UniProt P01116, G12C)
Experimental Endpoint: IC50
Readout Unit: µM
Value Observed: 4.4
--
Compound: C=CC(=O)N1CCN(c2nc(OC[C@@H]3CCCN3C)nc3c2CCN(c2cccc4cccc(C(F)(F)F)c24)C3)C[C@@H]1CC#N
Assay System: GTPase KRas (Homo sapiens, UniProt P01116, G12C)
Experimental Endpoint: IC50
Readout Unit: µM
Value Observed: 0.004

Quick batch: IC50 for everything below.
1. CN1CCC[C@H]1COc1nc2c(c(N3CCN(C(=O)/C=C/CF)[C@@H](CC#N)C3)n1)CCN(c1cccc3cccc(Cl)c13)C2
2. C=CC(=O)N1CCN(c2nc(OC[C@@H]3CCCN3C)nc3c2CCN(c2cccc4ccccc24)C3)CC1CO (some centres undefined)

Result ::
1. 0.003
2. 4.63

* * *

- Assay Procedure: Cmax in beagle dog at 10 mg/kg, po
- Format: ADME, organism-based, Canis lupus familiaris
- Parameters: dose 10 mg/kg, route oral
- Test Parameters: in vivo
Experimental Endpoint: Cmax
# output: numeric value plus its unit

Answer for every listed entry: what is its Cmax? The entries follow.
1. C=CC(=O)N1CCN(c2nc(OC[C@@H]3CCCN3C)nc3c2CCN(c2cccc4cccc(Cl)c24)C3)C[C@@H]1CC#N
2. C=CC(=O)N1CCN(c2nc(OC[C@@H]3CCCN3C)nc3c2CCN(c2cccc4cccc(C)c24)C3)C[C@@H]1CC#N

Result ::
16.3 ng/mL
17.8 ng/mL

* * *

- Assay System: GTPase KRas (Homo sapiens, UniProt P01116, G12C)
pIC50: −log10 of the molar value.
Could you label it yes (1) if measured pIC50 is 6 or higher, and no (0) otherwise?

Molecule: C=CC(=O)N1CCN(c2nc(OC[C@@H]3CCCN3C)nc3c2CCN(c2c(C(F)(F)F)ccc4[nH]ncc24)C3)CC1
Answer Label: yes (1)
//
Molecule: C=CC(=O)N1CCN(c2nc(OC[C@@H]3CCCN3C)nc3c2CCN(c2cccc4ccccc24)C3)CC1CC#N (stereo partly drawn)
Answer Label: yes (1)
//
Molecule: COC/C=C/C(=O)N1CCN(c2nc(OC[C@@H]3CCCN3C)nc3c2CCN(c2cccc4cccc(Cl)c24)C3)C[C@@H]1CC#N
Answer Label: yes (1)
//
Molecule: C=CC(=O)N1CCN(c2nc(OC[C@@H]3CCCN3C)nc3c2CCN(c2c(C)c(C)cc4[nH]ncc24)C3)CC1
Answer Label: yes (1)
//
Molecule: C=CC(=O)N1CCN(c2nc(OC[C@@H]3CCCN3C)nc3c2CCN(c2cccc4ccccc24)C3)C(CC#N)C1 (stereo partly drawn)
Answer Label: no (0)

Query :: # bool: pIC50 of C=CC(=O)N1CCN(c2nc(OC[C@@H]3CCCN3C)nc3c2CCN(c2cccc4cccc(OC)c24)C3)C[C@@H]1CC#N >= 6
Result :: yes (1)
